Quick reference for k on among some compounds
- ASSAYED SYSTEM: UniProt P29466
- TEST DESCRIPTION: Inhibition of IL-1 beta converting enzyme (ICE) in human blood monocytes expressed as Kon
- Type: cell-based
Give the value, in units of M⁻¹ s⁻¹, as a plain number.

INSERT INTO measurements (compound, readout_value) VALUES
  ('C=CCOC(=O)NC(CC(=O)O)C(=O)COc1cc2ccccc2cc1C(N)=O (stereo unspecified)', 5600),
  ('C=CCOC(=O)NC(CC(=O)O)C(=O)COc1cc2ccccc2cc1C#N (stereo unspecified)', 4500),
  ('CC(C)[C@H](NC(=O)OCc1ccccc1)C(=O)N[C@@H](C)C(=O)N[C@@H](CC(=O)O)C(=O)COc1cc2ccccc2cc1C(N)=O', 430000);

Form: compound = C=CCOC(=O)N[C@@H](CC(=O)O)C(=O)COc1cc2ccccc2cc1-c1ncc[nH]1 ; k on = 12000

Lookup result for CC(C)[C@H](NC(=O)OCc1ccccc1)C(=O)N[C@@H](C)C(=O)N[C@@H](CC(=O)O)C(=O)COc1ccccc1 ; measured k on: 1.1

Documented k on of C=CCOC(=O)NC(CC(=O)O)C(=O)COc1cc2ccccc2cc1C(=O)Nc1ccccc1 (stereo unspecified) : 4100

====

- ASSAYED SYSTEM: Caspase-1 (Homo sapiens, UniProt P29466)
- Sequence (P29466 whole entry): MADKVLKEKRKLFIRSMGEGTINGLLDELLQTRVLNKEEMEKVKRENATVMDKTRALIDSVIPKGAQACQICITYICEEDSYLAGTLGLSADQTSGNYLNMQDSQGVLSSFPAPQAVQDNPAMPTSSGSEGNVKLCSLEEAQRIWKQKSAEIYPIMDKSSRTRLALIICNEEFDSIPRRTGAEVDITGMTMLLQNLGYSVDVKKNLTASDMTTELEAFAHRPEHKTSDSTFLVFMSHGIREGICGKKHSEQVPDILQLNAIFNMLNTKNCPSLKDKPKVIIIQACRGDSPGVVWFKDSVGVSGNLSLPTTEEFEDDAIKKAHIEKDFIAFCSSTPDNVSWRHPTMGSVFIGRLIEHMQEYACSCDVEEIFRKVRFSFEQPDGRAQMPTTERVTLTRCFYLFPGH
- TEST DESCRIPTION: Inhibition of IL-1 beta converting enzyme (ICE) in human blood monocytes expressed as Ki
RESULT TYPE: pKi
// pKi is dimensionless: -log10 of concentration (M)

The compound listed as CC(C)[C@H](NC(=O)OCc1ccccc1)C(=O)N[C@@H](C)C(=O)N[C@@H](CC(=O)O)C(=O)COc1ccccc1 has a reported pKi of 5.31

Entry C=CCOC(=O)NC(CC(=O)O)C(=O)COc1cc2ccccc2cc1C(N)=O (configuration not stated) ; pKi = 6.49

Reported pKi ( C=CCOC(=O)NC(CC(=O)O)C(=O)COc1ccccc1C(N)=O (configuration not stated) ) = 5.42

====

- ASSAYED SYSTEM: UniProt P29466
- TEST DESCRIPTION: Inhibition of IL-1 beta converting enzyme (ICE) in human blood monocytes expressed as Ki
pKi: −log10 of the molar value.
# pKi per entry

INSERT INTO assay_data (compound, result_type, readout_value) VALUES
  ('C=CCOC(=O)NC(CC(=O)O)C(=O)COc1ccc2ccccc2c1C(N)=O (centres undefined)', 'pKi', '< 4.74'),
  ('C=CCOC(=O)NC(CC(=O)O)C(=O)COc1cc2ccccc2cc1C(=O)N(C)C (centres undefined)', 'pKi', '< 4.55'),
  ('C=CCOC(=O)N[C@@H](CC(=O)O)C(=O)CCc1cc2ccccc2cc1-c1ncc[nH]1', 'pKi', '< 4.00');

The compound identified as C=CCOC(=O)NC(CC(=O)O)C(=O)COc1c(C(N)=O)ccc2ccccc12 (centres undefined) registered its pKi at < 4.66
